Listing of recorded Inhibition of LAR, percentage of inhibition of the control by entry.
Target: LAR (Homo sapiens, UniProt P10586)
Sequence (P10586 1352-1607 limits assumed): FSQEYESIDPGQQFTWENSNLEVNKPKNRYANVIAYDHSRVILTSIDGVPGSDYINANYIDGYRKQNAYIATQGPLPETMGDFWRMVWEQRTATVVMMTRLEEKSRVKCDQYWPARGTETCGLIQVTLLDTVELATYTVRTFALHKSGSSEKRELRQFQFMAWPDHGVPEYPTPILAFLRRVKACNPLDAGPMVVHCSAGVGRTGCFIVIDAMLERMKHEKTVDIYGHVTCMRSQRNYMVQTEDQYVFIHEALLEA
Experiment: Inhibition of human recombinant tyrosine phosphatase LAR (DiFMUP fluorescence)
Type: biochemical
Settings: 1 µM; control solvent only; SD did not exceed 6%
Protocol: To determine the ability of the tested compounds for inhibition tyrosine phosphatases, human recombinant proteins were used (Sigma-Aldrich). The reactions were performed in black opaque 384-well microplates (PerkinElmer, Waltham, MA, USA). […] Samples were incubated for 20 miN at 23 °C, and then the measurements of fluorescence intensity (excitation 355 and emission […]) were performed on a multifunctional plate reader POLARstar Omega (BMG Labtech, Ortenberg, Germany). […]

O=C(NN=Cc1cc(Br)ccc1[O][V]1[O]C(c2ccccc2O)=NN=Cc2cc(Br)ccc2[O]1)c1ccccc1O [VC029, [V(L7)(HL7)]] : 25%
O=C(NN=Cc1cc(Br)ccc1[O][V]1[O]C(c2cc3ccccc3cc2O)=NN=Cc2cc(Br)ccc2[O]1)c1cc2ccccc2cc1O [VC067, [V(L12)(HL12)]] : 39%
Cc1occc(=O)c1[O-].Cc1occc(=O)c1[O-].[O]=[V+2] [BMOV, bis(maltolato)oxidovanadium(IV), reference compound] : 58%
O.O=C(NN=Cc1cc(Br)ccc1[O][V]1[O]C(c2ccccc2)=NN=Cc2cc(Br)ccc2[O]1)c1ccccc1 [VC032, [V(L8)(HL8)]⋅H2O] : 8%
CCC(C)C(N=C(C)CC(=S)Nc1ccccc1)C(=O)[O][V](=[O])([Cl])[Cl] (racemic) [VC109, [VOCl2(L5)]·3HCl] : 56%

Data request: Param item = CC(CC(=S)Nc1ccccc1)=NC(Cc1c[nH]c2ccccc12)C(=O)[O][V](=[O])([Cl])[Cl] (stereo not shown) [VC054, [VOCl2(L1)]·1.5Et2O ·6.5HCl] ; retrieve measured Inhibition of LAR, percentage of inhibition of the control.
Data returned: 67%

Data request: Param item = C1CCOC1.CSCCC1C(=O)[O][V](=[O])([Cl])([Cl])[N]1C(C)=CC(=S)Nc1ccccc1.Cl (stereo not shown) [VC073, [VOCl2(L4)]·1.5THF·3HCl] ; retrieve measured Inhibition of LAR, percentage of inhibition of the control.
Data returned: 63%

Data request: Param item = CC(C)(C)c1ccc(C2=NN=Cc3cc(Br)ccc3[O][V](=[O])[O]2)cc1.O.c1cnc2c(c1)ccc1cccnc12 [VC048, [VO(L10)(phen)]⋅0.5H2O] ; retrieve measured Inhibition of LAR, percentage of inhibition of the control.
Data returned: 35%

Data request: Param item = COc1ccc(C(=O)NN=Cc2cc(Br)ccc2[O][V]2[O]C(c3ccc(OC)cc3)=NN=Cc3cc(Br)ccc3[O]2)cc1 [VC055, [V(L11)(HL11)]] ; retrieve measured Inhibition of LAR, percentage of inhibition of the control.
Data returned: 18%

Data request: Param item = O.[O]=[V]1[O]C(c2ccc(O)cc2)=NN=Cc2cc(Br)ccc2[O]1.c1cnc2c(c1)ccc1cccnc12 [VC046, [VO(L9)(phen)]⋅2H2O] ; retrieve measured Inhibition of LAR, percentage of inhibition of the control.
Data returned: 37%

Data request: Param item = O=S(=O)([O-])[O-].[O]=[V+2] [VOSO4, reference compound] ; retrieve measured Inhibition of LAR, percentage of inhibition of the control.
Data returned: 44%

Data request: Param item = [O]=[V]1[O]C(c2ccc(Cl)cc2)=NN=Cc2cc(Br)ccc2[O]1.c1cnc2c(c1)ccc1cccnc12 [VC050, [VO(L11)(phen)]] ; retrieve measured Inhibition of LAR, percentage of inhibition of the control.
Data returned: 19%

Data request: Param item = O.[O]=[V]1[O]C(c2ccccc2O)=NN=Cc2cc(Br)ccc2[O]1.c1cnc2c(c1)ccc1cccnc12 [VC013, [VO(L6)(phen)]⋅H2O] ; retrieve measured Inhibition of LAR, percentage of inhibition of the control.
Data returned: 66%
